Cited source for all entries: patent US20220073604A1

Listing: koff of selected binders
Target: T1, eukaryotically produced human IL-6 (human, UniProt P05231 30-212)
T1 construct: also called eukIL-6; Euk IL-6
Assay: SPR; periplasmic fraction

BINDER	OUTPUT_UNIT	koff
Fab 55H1 (Fab, V domains shown, VL-shuffled Fab of 29B11, periplasmic fraction; also called 55H1c) VH: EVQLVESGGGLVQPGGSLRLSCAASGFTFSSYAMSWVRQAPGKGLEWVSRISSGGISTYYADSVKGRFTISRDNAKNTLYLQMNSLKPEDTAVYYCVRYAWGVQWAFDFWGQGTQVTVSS VL: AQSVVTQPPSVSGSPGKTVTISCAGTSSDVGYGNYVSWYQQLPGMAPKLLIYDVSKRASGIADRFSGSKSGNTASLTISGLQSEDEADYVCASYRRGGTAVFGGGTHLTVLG	s⁻¹	0.000111
Fab 55E2 (Fab, V domains shown, VL-shuffled Fab of 29B11, periplasmic fraction; also called 55E2b) VH: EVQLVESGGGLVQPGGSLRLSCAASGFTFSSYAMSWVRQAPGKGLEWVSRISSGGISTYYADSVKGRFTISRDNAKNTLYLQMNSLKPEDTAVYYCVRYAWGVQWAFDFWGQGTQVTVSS VL: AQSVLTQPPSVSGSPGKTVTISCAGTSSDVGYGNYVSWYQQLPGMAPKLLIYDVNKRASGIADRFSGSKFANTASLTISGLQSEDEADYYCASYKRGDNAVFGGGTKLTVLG	s⁻¹	6.53e-05
Fab 55C1 (Fab, V domains shown, VL-shuffled Fab of 29B11, periplasmic fraction; also called 55C1a) VH: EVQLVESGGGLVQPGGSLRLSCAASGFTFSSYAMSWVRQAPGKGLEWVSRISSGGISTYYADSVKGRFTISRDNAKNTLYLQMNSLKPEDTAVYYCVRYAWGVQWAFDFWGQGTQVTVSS VL: LNFMLTQPPSVSGSPGKTVTISCAGTSSDVGYGNYVSWYQQLPGTAPKLLIYNVNKRASGITDRFSGSKSGNTASLTISGLQSEDEADYYCASYRTGDNAAFGGGTKLTVLG	s⁻¹	7.93e-05
Fab 47C2 (Fab, V domains shown, VL-shuffled Fab of 29B11, periplasmic fraction; also called 47C2 (R4)) VH: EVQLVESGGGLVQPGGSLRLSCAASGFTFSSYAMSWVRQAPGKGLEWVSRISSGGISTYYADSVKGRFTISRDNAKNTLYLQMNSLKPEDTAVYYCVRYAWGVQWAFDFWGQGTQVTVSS VL: LSYDLTQPPSVSGSPGKTVTISCAGTSSDVGYGNYVSWYQQLPGMAPKILIYDVNKRASGIADRFSGSKSGNTASLTISGLQSEDEADYYCASYRRGETIVFGGGTHLTVLG	s⁻¹	0.00024
Fab 29B11 (Fab, V domains shown, Fab) VH: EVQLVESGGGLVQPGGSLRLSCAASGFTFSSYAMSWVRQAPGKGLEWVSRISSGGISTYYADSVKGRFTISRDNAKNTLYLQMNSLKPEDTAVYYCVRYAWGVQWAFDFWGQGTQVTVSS VL: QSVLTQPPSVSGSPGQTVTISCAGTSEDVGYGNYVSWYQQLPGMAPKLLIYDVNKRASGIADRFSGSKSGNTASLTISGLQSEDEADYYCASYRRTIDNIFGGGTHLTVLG	s⁻¹	0.000102
